protocol-details: Pharmacokinetic study in rats after oral administration of SYD extract and its single and combined TCM extracts (UPLC-MS/MS of plasma)
experimental-conditions: male, Sprague-Dawley, rat, plasma, po, 1.29 g/kg, Cmax, rat plasma, oral AS extract 1.29 g/kg, n = 6
property: Cmax (ng/mL)
Report the figure in ng/mL without appending any unit label.

Retrieve Cmax measured for O=C(/C=C/c1ccc(O)c(O)c1)O[C@@H]1C[C@](O)(C(=O)O)C[C@@H](O)[C@H]1O [Chlorogenic acid, chlorogenic acid] and print it.
390

###

List of Cmax values.
protocol-details: Pharmacokinetic study in rats after oral administration of SYD extract and its single and combined TCM extracts (UPLC-MS/MS of plasma)
experimental-conditions: male, Sprague-Dawley, rat, plasma, po, 3.29 g·kg^−1 (extract), Cmax, rat plasma, oral LJ + AS extract, n = 6
// unit must come after the numeric part

compound	Cmax
O=C(/C=C/c1ccc(O)c(O)c1)O[C@@H]1C[C@](O)(C(=O)O)C[C@@H](O)[C@H]1O [Chlorogenic acid, chlorogenic acid]	1670 ng/mL

Now let's try a different one.
Retrieve Cmax measured for COC(=O)C1=CO[C@@H](O[C@@H]2O[C@H](CO)[C@@H](O)[C@H](O)[C@H]2O)[C@@H]2[C@@H](C)[C@@H](O)C[C@H]12 [Loganin, loganin] and print it.
660 ng/mL
